- measured on: Dual specificity tyrosine-phosphorylation-regulated kinase 1A (Rattus norvegicus)
- protocol: Inhibition of rat DYRK1A kinase domain (1 to 499 residues) expressed in bacteria assessed as residual activity at 1 uM using KKISGRLSPIMTEQ as substrate in presence of [gamma-33P]ATP relative to control
parameter measured: Activity (%)

>>> measured("O=[N+]([O-])c1c2ccncc2cc2cnc(NCCN3CCCC3)nc12")
83
>>> measured("O=[N+]([O-])c1c2ccncc2cc2cnc(NCCN3CCOCC3)nc12")
73
>>> measured("CN1CCN(CCCNc2ncc3cc4cnccc4c([N+](=O)[O-])c3n2)CC1")
54
>>> measured("CN1CCN(CCNc2ncc3cc4cnccc4c([N+](=O)[O-])c3n2)CC1")
32
